# assayedTarget: Beta-galactosidase (Escherichia coli) (UniProt Q8VNN2)
# Sequence (Q8VNN2 whole entry, looked up): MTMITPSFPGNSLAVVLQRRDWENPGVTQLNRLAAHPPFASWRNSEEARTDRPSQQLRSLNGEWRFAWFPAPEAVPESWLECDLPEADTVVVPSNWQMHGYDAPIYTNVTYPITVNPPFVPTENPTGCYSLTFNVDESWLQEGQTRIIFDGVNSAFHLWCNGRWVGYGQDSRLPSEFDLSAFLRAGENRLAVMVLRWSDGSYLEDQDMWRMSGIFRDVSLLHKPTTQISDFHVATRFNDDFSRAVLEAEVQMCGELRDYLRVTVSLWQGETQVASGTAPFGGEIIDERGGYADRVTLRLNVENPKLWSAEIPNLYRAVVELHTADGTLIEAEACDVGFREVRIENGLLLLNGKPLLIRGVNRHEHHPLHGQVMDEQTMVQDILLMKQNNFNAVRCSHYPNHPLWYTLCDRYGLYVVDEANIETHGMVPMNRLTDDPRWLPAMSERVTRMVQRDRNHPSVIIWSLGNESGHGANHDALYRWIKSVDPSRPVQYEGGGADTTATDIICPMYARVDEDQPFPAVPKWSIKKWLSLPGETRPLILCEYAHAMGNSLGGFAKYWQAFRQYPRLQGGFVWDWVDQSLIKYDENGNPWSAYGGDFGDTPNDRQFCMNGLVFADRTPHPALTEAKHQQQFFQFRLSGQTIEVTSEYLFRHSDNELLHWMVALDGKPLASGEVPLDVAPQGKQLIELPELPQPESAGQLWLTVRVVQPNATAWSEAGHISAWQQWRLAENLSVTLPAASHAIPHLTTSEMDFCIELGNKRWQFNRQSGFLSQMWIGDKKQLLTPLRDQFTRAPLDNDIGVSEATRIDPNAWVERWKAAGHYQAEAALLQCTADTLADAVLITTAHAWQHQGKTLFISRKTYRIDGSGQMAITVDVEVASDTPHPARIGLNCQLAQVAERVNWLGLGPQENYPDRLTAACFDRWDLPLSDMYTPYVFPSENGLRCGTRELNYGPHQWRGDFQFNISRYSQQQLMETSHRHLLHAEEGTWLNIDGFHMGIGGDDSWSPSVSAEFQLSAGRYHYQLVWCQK
# assayNotes: potency against CXCR6 with APJ panel – cell-based, beta-arrestin, DiscoveRx, uHTS hits, dose response (AID 624129)
# appliedConditions: CXCR6 beta-arrestin (DiscoveRx) antagonist cell assay, b-galactosidase, dose range 1
Activity calls are given as the source filed them. No rule for the calls is given here.
Answer with one of the outcomes given here: t = active, f = inactive

Some entries whose results are on file:
O=C(CSc1cccc2cccnc12)N1CCCC1; f
CCC(=O)OCCNc1cc(Sc2nc3ccccc3s2)c2nonc2c1[N+](=O)[O-]; f
Cn1nc([N+](=O)[O-])nc1Sc1cccc2cccnc12; f
CC(=O)OCCNc1cc(Sc2nc3ccccc3[nH]2)c2nonc2c1[N+](=O)[O-]; t

query: Returns: the outcome recorded for CCS(=O)(=O)c1ncc(Cl)c(C(=O)Nc2ccc(S(=O)(=O)N3CCCC(C)C3)cc2)n1 (stereo not given) in this assay.
result: f
